# methodNotes: Metabolic stability test using human liver microsome
# Format: in vitro ADME
# settings: NADPH, 37° C., 25 minutes versus 0 minute, LC/MS peak area
reportedMetric: Residual Rate at 25 minutes (%)
Just the number please, in %, no unit attached.

Recall and state the measured Residual Rate at 25 minutes (%) for CC(C)C[C@H](N[C@@H](c1ccccc1)C(F)(F)F)C(=O)N[C@@H](CCCCN)CNc1ccc(N2CCOCC2)cc1 .
90

Recall and state the measured Residual Rate at 25 minutes (%) for CC[C@@H](CNc1ccc(N2CCC[C@H](C(=O)O)C2)cc1)NC(=O)[C@H](CC(C)(C)F)N[C@@H](c1ccccc1)C(F)(F)F .
90

Recall and state the measured Residual Rate at 25 minutes (%) for CC(C)C[C@H](N[C@@H](c1ccccc1)C(F)(F)F)C(=O)N[C@@H](CCCC(=O)O)CNc1ccc(N2CCOCC2)cc1 .
100

Recall and state the measured Residual Rate at 25 minutes (%) for CC[C@@H](CNc1ccc(OC2(C(=O)O)CC2)cc1OC)NC(=O)[C@H](CC(C)C)N[C@@H](Cc1ccccc1)C(F)(F)F .
87

Recall and state the measured Residual Rate at 25 minutes (%) for CC(C)C[C@H](N[C@@H](c1ccccc1)C(F)(F)F)C(=O)N[C@@H](CC#N)CNc1ccc(N2CCOCC2)cc1 .
63

Recall and state the measured Residual Rate at 25 minutes (%) for CC[C@@H](CNc1ccc(OC2(C(=O)O)CC2)cc1OC)NC(=O)[C@H](CC(C)(C)F)N[C@@H](c1ccccc1)C(F)(F)F .
76
